- System: Plasmodium falciparum
- test_details: Antimalarial activity against chloroquine-sensitive Plasmodium falciparum D6 after 48 hrs by [3H]hypoxanthine incorporation assay
- Format: functional, organism-based

# compound, target_system, IC50 / nM
data = [
    ("CC[C@H]1OC(=O)[C@H](C)[C@@H](O[C@H]2C[C@@](C)(OC)[C@@H](O)[C@H](C)O2)[C@H](C)[C@@H](O[C@@H]2O[C@H](C)C[C@H](N(C)C)[C@H]2O)[C@](C)(O)C[C@@H](C)CN(CCCN(CCC#N)C(=O)NC(C)c2cccc3ccccc23)[C@H](C)[C@@H](O)[C@]1(C)O (some centres not stated)", "Plasmodium falciparum", 200),
    ("CC[C@H]1OC(=O)[C@H](C)[C@@H](O[C@H]2C[C@@](C)(OC)[C@@H](O)[C@H](C)O2)[C@H](C)[C@@H](O[C@@H]2O[C@H](C)C[C@H](N(C)C)[C@H]2O)[C@](C)(O)C[C@@H](C)CN(CCCN(CCC#N)C(=O)Nc2cccc3ccccc23)[C@H](C)[C@@H](O)[C@]1(C)O", "Plasmodium falciparum", 523),
]

meta.source: ChEMBL document CHEMBL1772969
